# measured on: TRβ (Homo sapiens)
# Construct: expressed in transfected cells; host or cells: HEK293
# Sequence (P10828 217-461 limits assumed): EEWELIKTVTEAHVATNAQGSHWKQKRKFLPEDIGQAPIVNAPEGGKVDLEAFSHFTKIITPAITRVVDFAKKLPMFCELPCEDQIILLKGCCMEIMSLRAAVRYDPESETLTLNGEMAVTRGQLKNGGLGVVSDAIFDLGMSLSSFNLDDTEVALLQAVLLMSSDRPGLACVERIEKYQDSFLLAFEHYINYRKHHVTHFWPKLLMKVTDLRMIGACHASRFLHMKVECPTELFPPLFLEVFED
# run description: Thyroid-hormone reporter-gene assay (TRβ-Gal4 hybrid, luciferase, HEK293)
# Format: cell-based
# study conditions: calculated as EC50 (TRα)/EC50 (TRβ); Table 2
quantity name: T3-SI (selectivity index)

Reference set, count: 5
| test smiles | T3-SI (selectivity index) |
| --- | --- |
| CC(C)c1cc(Cc2c(Cl)cc(OCC(=O)O)c(F)c2C(C)C)ccc1O | +++ (T3-SI>30×) |
| CCc1cc(OCC(=O)Nc2onc(C)c2C)cc(Cl)c1Cc1ccc(O)c(C(C)C)c1F | ++ (3×<T3-SI≤30×) |
| CC(C)c1cc(Cc2c(Cl)cc(OCC(=O)O)c(Cl)c2Cl)ccc1O | ++ (3×<T3-SI≤30×) |
| CNC(=O)COc1cc(C)c(Cc2ccc(O)c(C(C)C)c2)c(Cl)c1F | +++ (T3-SI>30×) |
| O=C(O)COc1cc(Cl)c(Cc2ccc(O)c(Cc3ccc(F)cc3)c2)c(Cl)c1F | +++ (T3-SI>30×) |

Quick request: T3-SI (selectivity index) for each listed item, please.
1. CC(C)c1c(O)ccc(Cc2c(Cl)cc(OCC(=O)O)c(F)c2Cl)c1F
2. CNC(=O)COc1cc(C)c(Cc2ccc(O)c(C(C)C)c2)c(F)c1F

++ (3×<T3-SI≤30×)
++ (3×<T3-SI≤30×)

Give measured T3-SI (selectivity index) for Cc1c(F)c(OCC(=O)O)cc(Cl)c1Cc1ccc(O)c(C(C)C)c1F (TRβ (Homo sapiens)). ++ (3×<T3-SI≤30×)
